tested on: MS2 coat protein; experiment: apparent KD of MS2 coat protein; higher = weaker reporter binding; conditions: Eterna round: R107; input ligand: theophylline 20 uM
Note to self: class labels come from recorded apparent KD of MS2 coat protein, ranges listed here: bucket A = under 0.02 µM, bucket B = from 0.02 µM up to 0.1 µM, bucket C = 0.1 µM and over

Field: example entries. Status: answers known.
stdin: Lab log: ACAUGAGGAUCACCCAUGUGAAGCAGGGUACGAGGACCGGUACGGCCGCCACUCGAGCAUUAUAACGAGUGAAUGGCAACGAUGU [whbob_Ex_trypto A_2s16] — assign apparent KD of MS2 coat protein category
stdout: bucket A

stdin: Pick a category. Item: ACGCCCAGGUAGGCUUAGUGGGAUAUGGAAGGAGCGCCGAUGCAGGCAGGUAGGUCGCCAUAGAACAUGAGGAUCACCCAUGUAA [#05 Same State - Arginine A]
stdout: bucket B

stdin: The entry to classify is CCGCCCACGAAUGAUACCAGCUAAAAUCAUGUACCAGACACAUGAGGAUCACCCAUGUAAAGCCCUUGGCAGCGUACGCCACCCG [e-theoB-?] ; which class holds it?
stdout: bucket B

stdin: Band assignment needed for AUGGUCGACGAUCUGCGAAAAGCAGAUCGACGAGGACCGGUACGGCCGCCACUCGUGUUCAUUAAACAUGAGGAUCACCCAUGUA [#15Tryptophan A Same State] please.
stdout: bucket B

stdin: Please indicate the class for UUACAUGAGGAUCACCCAUGUCAUACAGAAGGAGCGUCACAUAAGACAGGUAGGUCGCUGUUAUUUUUUACUAUUAUAUCCUCUA [JR_Nu_ExcArginiA_Sub030] based on its apparent KD of MS2 coat protein.
stdout: bucket B

stdin: State the class of the sequence shown: AGAUGUAGCGGAAGGAGCGACUUGAGGAUCACCCAAGUCUCCCGUUGUGGGAGUUCCUUAGGUCAGGUAGGUCGCCGUUACGUCA [Omei Arg B SS B v3]
stdout: bucket C

---
stdin: Could you place AGAUGAGUCACGGCCGCCACUCUUCACAGGUUCACCCUUGGUUAACAUGAGGAUCACCCAUGUGGGAGGACCGGGUGAUGAGCAU [XTryp B #5] in its proper category? Many thanks.
stdout: bucket A

stdin: Where would UGACAUUGCUCAGAUACCAGACGUGAGCAUCAGCCAUGUGCCAACAAGUACAAAAUAAAUGUCCCUUGGCAGCUGAGCAAUGUCU [TheoBX 22 #MS2Left #AlternativeMS2 #Theo22] land among the classes by reported apparent KD of MS2 coat protein?
stdout: bucket B

stdin: Returns: class label. Input: CAAUUUAGAAAACUAAAUUGAGUGGGUGAACGAGGACCGGUACGGCCGCCACUCGGACAUGAGGAUCACCCAUGUCCAUGUGAAA [AstrosExyTryA#23]
stdout: bucket A

stdin: Note: place this sequence into its band. Item: UAUAUAUAUCACUAACUGUUCUUGAGGUCUCGAGGACCGGUACGGCCGCCACUCGGGCCGCCUCACAUGAGGAUCACCCAUGUCC [XTryp A #3]
stdout: bucket B

stdin: In plain terms, what class is ACGAUAGCACACGAGGAUCACCCGUGUGAUACCAGCCUGGAAACAGGCCCUUGGCAGCACACAAUAAAAGUGUAACUAUCGAAUA [TheoAX4 #MicroSwitchBubble #AlternativeMS2] ?
stdout: bucket C

stdin: Record GUUUUCAAGUCGGCCGCCACUGAUACAAUCCUCACCGGUUCACAUGAGGAUCACCCAUGUUCGCUCAGGACCGGGACCUUCUGUG [theeternabot_exclusion_MS2_Trp_B_3] — which class?
stdout: bucket C

stdin: Input AGCCGGAUUACGGCCGCCACUGUAGACGUGACGAAAGUCGCGUCAACAUGAGGAUCACCCAUGUACAGGACCGGGUGGUCCGGCG [Omei Trp B SS A v1] ; output its category
stdout: bucket B

stdin: Class? Entry: UACCCAUGAGUUGGAAAAGCUCAUGGGUAUCGAGGACCGGUACGGCCGCCACUCGGCUGUACAUGAGGAUCACCCAUGUCAGGGU [#1 Same State - Tryptophan A Attempt #24 (HarryS)]
stdout: bucket C

stdin: The entry to classify is ACGAACGAUAGUGAUACCAGACGUACAUGAGGAUCACCCAUGUUGUAAACAUGGUUAAUAGUCCCUUGGCAGCACGAUAAGUUCG [JR_ExcTheophyB_Sub003] ; which class holds it?
stdout: bucket C

stdin: # bin lookup: classify ACAUGAGGGCGAAGGAGCGCGUACAUGAGGAUCACCCAUGUCUAUAUCCGUCCGCGUGUAACGCAGGUAGGUCGCGCUGUUAAUU [#14 Exclusion - Arginine B] by its apparent KD of MS2 coat protein
stdout: bucket B

stdin: Which category fits this record: UCUUGAGUUUCGGAUACCAGUGUUGUCGAUACAUGAGGAUCACCCAUGUUAGAGGAUGUACACCCUUGGCAGCCGGCUGUGGCGG [zszmullin]
stdout: bucket B
